Ref: PubChem BioAssay

target: L-lactate dehydrogenase (Plasmodium falciparum (isolate CDC / Honduras)) (UniProt Q27743); experiment: PfLDH activity inhibition – cell lysate, 3D7 strain, counter-screen for P. falciparum growth inhibition project (AID 2304);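 also: 0% = vehicle and 100% = reference inhibitor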; details: P. falciparum 3D7 crude extract, LDH APAD/NBT absorbance; at 2 µM; stronger effect = higher value
Sequence (Q27743 whole entry, looked up): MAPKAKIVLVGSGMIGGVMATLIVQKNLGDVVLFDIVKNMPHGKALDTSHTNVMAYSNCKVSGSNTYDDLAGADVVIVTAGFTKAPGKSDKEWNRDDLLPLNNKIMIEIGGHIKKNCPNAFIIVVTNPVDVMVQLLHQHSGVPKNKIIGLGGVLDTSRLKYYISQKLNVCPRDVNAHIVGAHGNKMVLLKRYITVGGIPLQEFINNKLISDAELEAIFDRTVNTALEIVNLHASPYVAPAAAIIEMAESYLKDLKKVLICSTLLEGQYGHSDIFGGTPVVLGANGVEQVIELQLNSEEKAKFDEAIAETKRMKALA
Active and inactive are the calls of the source. No rule for the calls is given here.
measured.parameter: inhibition

Would you please look over these solved cases?
Cc1cccc2[nH]c(-c3ccc(-c4ccc(CN5CCOCC5)cc4)cc3)nc12 : 0% (inactive)
NC1=NC(c2ccccc2)N(c2ccccc2)C(N)=N1 (stereo not given) : 2% (inactive)
CCCOc1ccc(C=C(CC(=O)O)c2nc3ccccc3s2)cc1OCC : -1% (inactive)
CC1=C(C(=O)Nc2cc3cn[nH]c3cc2F)C(c2cccc(O)c2F)CC(=O)N1 (stereo not given) : -2% (inactive)
O=C(Nc1ccc(-c2cccc(-c3nc4ccc(F)cc4[nH]3)c2)cc1)c1cnn2cccnc12 : -1% (inactive)

Q: Quick one: inhibition of NC(=O)COc1c(C2CCN(CCN3CCC(CNC(=O)c4ccc(-c5ccc(C(F)(F)F)cc5)cc4)CC3)CC2)ccc2c1CCCC2 ?
Result: -1% (inactive)

Q: Quick one: inhibition of COc1ccc(C2CC(=O)C3=C(C2)NC(C)=C(C(=O)OC2CCCC2)C3c2cccc(O)c2)cc1 (stereo not given) ?
Result: -2% (inactive)

Q: Quick one: inhibition of COc1ccc(CCNCCCCCNCCc2ccc(Cl)cc2)cc1OC ?
Result: -11% (inactive)

Q: Quick one: inhibition of Cc1cccc2[nH]c(-c3ccc(-c4cccc(NC(=O)Nc5ccc(F)c(F)c5F)c4)cc3)nc12 ?
Result: 2% (inactive)

Q: Quick one: inhibition of c1ccc2c(NCCCCCCCNc3ccnc4ccccc34)ccnc2c1 ?
Result: 1% (inactive)

###

assay: human hepatoma cell viability loss – ATP luminescence, cytotoxicity control for P. falciparum antimalarial project, primary screen (AID 2303); settings: HepG2 viability, 24-48 h, at 10 µM, stronger effect = higher value;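 also: 0% = DMSO wells and 100% = digitonin-killed cells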
The following compounds are shown together with reported inhibition values.
I only need the number, in %, no unit after it.

Would you please look over these solved cases?
CC(C)(C)c1ccc(NC(=O)c2cccc(CN3CCCN(Cc4cccc(C#N)c4)CC3)c2)cc1 : 39
N#Cc1ccc2[nH]cc(CN3CCC4(CC3)CN(CCNCc3ccccc3)C(=O)O4)c2c1 : -5
Cc1cccc(Cn2c(Cc3ccccc3)nnc2Sc2ccc([N+](=O)[O-])c(C#N)c2)c1 : 17
COc1ccccc1CCNc1nc(C)cc(N[C@@H](Cc2ccccc2)C(=O)NCCOc2ccccc2)n1 : 20

Turning now to a further compound:
Q: Quick one: inhibition of COc1cccc(NC(=O)Nc2ccc(Nc3nc(C)cc(N4CCCC4)n3)cc2)c1 ?
Result: 28

###

assay: human hepatoma cell viability loss – ATP luminescence, cytotoxicity control for P. falciparum antimalarial project, primary screen (AID 2303); details: HepG2 viability, 24-48 h, at 10 µM;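 also: 0% = DMSO wells and 100% = digitonin-killed cells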
Active and inactive are the calls of the source.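 The calls were made as follows: active = inhibition above 50%; inactive = the rest.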
Your reply should match one of these outcome classes. Y for active, N for inactive

CSc1ccc(NC(=O)Nc2cc(C)nc3ccccc23)cc1 : N
CC(C)CN1CCCN(Cc2cccc(NC(=O)c3ccc(-c4ccccc4)cc3)c2)CC1 : N
Cc1cc(-c2ccc3c(c2)CCN(CCC2CCC(NC(=O)/C=C/c4ccc(F)cc4)CC2)CC3)on1 (stereo not drawn) : N
CC(C)Oc1ccc(C=CC(=O)Nc2noc3ccccc23)cc1 : N
CC(C)N1CCC(NC(=O)N2CCCN(c3ncnc4cc(-c5ccc(Cl)cc5)sc34)CC2)CC1 : N

Q: Short answer needed: outcome of this test for O=C(NCc1cccc(C(F)(F)F)c1)[C@@H]1CCCN1C(=O)c1ccc(O)c(-c2ccc(Cl)c(Cl)c2)c1 ?
Result: N

###

molecular target: L-lactate dehydrogenase (Plasmodium falciparum (isolate CDC / Honduras)); assay: PfLDH activity inhibition – cell lysate, 3D7 strain, counter-screen for P. falciparum growth inhibition project (AID 2304);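 also: 0% = vehicle and 100% = reference inhibitor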; settings: P. falciparum 3D7 crude extract, LDH APAD/NBT absorbance; at 2 µM; stronger effect = higher value
measured.parameter: inhibition (%)
I only need the number, in %, no unit after it.

Would you please look over these solved cases?
CN1CCN(Cc2cc(NC(=O)c3ccc(-c4ccc(Cl)cc4Cl)cc3)ccc2-c2ccccc2)CC1 : 3
Oc1ccc(CCNCCCCCCNCCCc2ccc(Cl)cc2)cc1O : -2
O=C(NC1CC1)c1cnc(N2CCN(Cc3ccc(Cl)cc3)CC2)c(Cl)c1 : 0

Q: Quick one: inhibition of COc1cc(NCC(C)CNCc2cn(Cc3ccccc3)c3ccccc23)nc2ccccc12 (stereo unspecified) ?
Result: -6

Q: Quick one: inhibition of CN1CCCc2ccc(NC(=O)c3cc(-c4ccc(Cl)cc4)cs3)cc2C1 ?
Result: -2

Q: Quick one: inhibition of O=C(NCC1CCN(Cc2cccc(C(F)(F)F)c2)C1)c1cc(-c2cccc(Cl)c2)cs1 (stereo unspecified) ?
Result: -5

Q: Quick one: inhibition of NC(N)=NC(=O)Nc1cc(Cl)c(Br)c(Cl)c1 ?
Result: 4

Q: Quick one: inhibition of CCOc1ccc(-c2nonc2NC(=O)c2ccc(F)cc2)cc1OCC ?
Result: 0

Q: Quick one: inhibition of COc1cccc(CNC(=O)c2ccnc(-c3ccc(CNCCOc4ccccc4)cc3)c2)c1 ?
Result: -4

Q: Quick one: inhibition of CCOc1cc2c(cc1OCC)C(c1ccc(O)c(Cl)c1)NCC2 (stereo unspecified) ?
Result: 4

Q: Quick one: inhibition of Cc1nc(-c2ccc(-c3ccc(NC(=O)c4coc5ccc(N6C[C@@H](C)N(C)[C@@H](C)C6)cc45)cc3)c(C)c2)no1 ?
Result: 1

Q: Quick one: inhibition of CCOc1ccc(Br)cc1/C=C/C(=O)Nc1ccc(C2CCN(C)CC2)cc1 ?
Result: -2

###

assay: human hepatoma cell viability loss – ATP luminescence, cytotoxicity control for P. falciparum antimalarial project, primary screen (AID 2303); conditions: HepG2 viability, 24-48 h, at 10 µM;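 also: 0% = DMSO wells and 100% = digitonin-killed cells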
Active and inactive are the calls of the source.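 The calls were made as follows: active = inhibition above 50%; inactive = the rest.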
Your reply should match one of these outcome classes. active, inactive

The examples below pair each entry with its known result.
O=C(CSc1ccccn1)Nc1c(F)cccc1F : inactive
O=C(Nc1ccc(N2CCNCC2)nc1)c1oc(-c2ccccc2)nc1C(F)(F)F : inactive
CCCCCN1C(=O)C(c2ccccc2)(c2ccccc2)N=C1N : inactive
O=C(NCC1CCN(Cc2cccc(C(F)(F)F)c2)C1)c1cc(-c2cccc(Cl)c2)cs1 (stereo not drawn) : inactive
Cc1ccc(S(=O)(=O)NC2CCN(CCNC(=O)Nc3cc(C)nc4ccccc34)C2)cc1 (stereo not drawn) : inactive

Q: Short answer needed: outcome of this test for O=C(Nc1ccc(N2CCN(Cc3c[nH]c4cc(F)ccc34)CC2)cc1)c1ccccc1-c1ccc(C(F)(F)F)cc1 ?
Result: inactive

Q: Short answer needed: outcome of this test for Nc1nccc2ccc(-c3ccc4ncccc4c3)cc12 ?
Result: active

Q: Short answer needed: outcome of this test for CN(C)CC1c2[nH]c3ccccc3c2CCN1C(=O)Nc1ccc(Cl)c(Cl)c1 (stereo not drawn) ?
Result: active

###

The following compounds are shown together with reported inhibition values.
target: L-lactate dehydrogenase (Plasmodium falciparum (isolate CDC / Honduras)) (UniProt Q27743); assay: PfLDH activity inhibition – cell lysate, 3D7 strain, counter-screen for P. falciparum growth inhibition project (AID 2304);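 also: 0% = vehicle and 100% = reference inhibitor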; conditions: P. falciparum 3D7 crude extract, LDH APAD/NBT absorbance; at 2 µM; stronger effect = higher value
I only need the number, in %, no unit after it.

COc1ccc(CNC(=O)NC2CCN(c3ccnc(Nc4ccc(F)cc4)n3)C2)cc1 (configuration not stated) : -2

Q: Quick one: inhibition of CCCc1ccc(S(=O)(=O)Nc2ccc3c(c2)CCC3)cc1 ?
Result: 1

Q: Quick one: inhibition of CC[C@H]1CN(Cc2cccc(O)c2)CC[C@H]1CCCc1ccnc2ccc(O)cc12 ?
Result: 4

###

assay: human hepatoma cell viability loss – ATP luminescence, cytotoxicity control for P. falciparum antimalarial project, primary screen (AID 2303); conditions: HepG2 viability, 24-48 h, at 10 µM;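 also: 0% = DMSO wells and 100% = digitonin-killed cells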
Activity calls are given as the source filed them.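 How the source made its calls: active means inhibition above 50%; inactive means the rest.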
Your reply should match one of these outcome classes. True (active), False (inactive)

O=C(O)C1CC(=O)N(c2ccc(Cl)cc2)C1 (stereo unspecified) : True
CC(C)CN1CCCN(Cc2cccc(NC(=O)c3cc4ccccc4s3)c2)CC1 : False
Fc1cccc(-c2ccc3c(c2)CC(NCc2c[nH]c4cnccc24)C3)c1 (stereo unspecified) : False
CC(C)NCc1ccc(-c2ccc(NS(=O)(=O)c3cccc4cccnc34)cc2)cc1 : False
COCCNCc1cccc(-c2ccccc2CN(C(=O)c2ccc3c(c2)OCO3)c2ccc(OC)cc2)c1 : False
CN(C)CCOC(=O)C1(O)CCC2CC1C2(C)C (stereo unspecified) : False

Q: Short answer needed: outcome of this test for CCOc1ccc(C(=O)Nc2cc3c(c(C(F)(F)F)c2)CCNC3)cc1Cl ?
Result: False

Q: Short answer needed: outcome of this test for COC(=O)Nc1ccc(-c2ccc(C(=O)NC3CCN(C[C@H](O)c4ccnc5ccc(OC)cc45)CC3)cc2)c(C)c1 ?
Result: False

Q: Short answer needed: outcome of this test for O=C(NCc1cccc(F)c1)Nc1cccc(-c2ccc(-c3nc4ccc(F)cc4[nH]3)cc2)c1 ?
Result: False

Q: Short answer needed: outcome of this test for Cc1cccc(C(=O)NC(NC(=S)Nc2cc(Cl)ccc2Cl)C(Cl)(Cl)Cl)c1 (stereo unspecified) ?
Result: False

Q: Short answer needed: outcome of this test for CC(C)(CNCc1cccc(Oc2cccc(C(F)(F)F)c2)c1)c1nc(-c2ccc(Cl)c(O)c2)c(-c2ccnc(N)n2)[nH]1 ?
Result: False
